Values compiled from patent US20240010654A1.

Assay: Pharmacokinetics following oral administration in male cynomolgus monkeys
Format: in vivo
Conditions: male, cynomolgus monkey, plasma, po, 100 mg/kg, PO, 100 mg/kg, read-out: Tmax
measurement.label: Tmax (h)
Use h as the unit, but write only the number.

Quick one: Tmax of CNc1cc(Nc2cc(F)cc3c2OCCO3)nc2c(NC(=O)N[C@@H]3C[C@@H]3F)cnn12 [Compound 1 adipate, Form 1] ? 4.67

###

Experiment: Pharmacokinetics following oral administration in male cynomolgus monkeys
Type: in vivo
Conditions: male, cynomolgus monkey, plasma, po, 5 mg/kg
Counter-ions that a name gives are not always drawn.
measurement.label: AUC(0-t) (ng·h/mL)
Use ng·h/mL as the unit, but write only the number.

Quick one: AUC(0-t) of CNc1cc(Nc2cc(F)cc3c2OCCO3)nc2c(NC(=O)N[C@@H]3C[C@@H]3F)cnn12 [Compound 1 oxalate, Form 1] ? 1510
